Biological target: E3 ubiquitin-protein ligase UHRF1 (Homo sapiens)
Assay: blockers of UHRF1 binding to methyl-oligo – biochemical, TR-FRET, human UHRF1, single concentration, counter-screen for MBD2 inhibitor project, primary screen (AID 687016);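 further: UHRF1 SRA domain binding a hemimethylated CpG hairpin DNA probe; 0% = median of test compound wells and 100% = reference inhibitor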
Conditions: UHRF1 binding to methylated oligo, at 4.4 µM, stronger effect = higher value
Hit rate of the full screen: of about 370,000 compounds, about 2,800 (0.76%) were called active. Many of the other results were omitted from the sample, so actives are more common in it than they were.
Known inhibition of a selection of compounds
# number only, unit % dropped from output

Ask | inhibition for COC(=O)c1ccc2nc(-c3ccc(Cl)cc3)c(Cc3cccc(F)c3)n2c1 ?
Reply | 10.2

Ask | inhibition for CCC(C(=O)OC)n1cnc2scc(-c3ccc(C)cc3)c2c1=O (stereo unspecified) ?
Reply | 0.64

Ask | inhibition for COc1ccc(C2CC=C(C(=O)O)C(c3ccccc3F)N2S(=O)(=O)c2ccc(C)cc2)cc1OC (stereo unspecified) ?
Reply | -0.43

Ask | inhibition for CCCCCC(=O)Nc1ccc(-c2cn3cccnc3n2)cc1 ?
Reply | 23.5

Ask | inhibition for O=C(Nc1cc(Cl)cc(Cl)c1)OCCN1CCCC12CCC(c1ccccc1)CC2 (stereo unspecified) ?
Reply | -2.5

Ask | inhibition for CCOC(=O)N1CCN(Cc2nc3c(c(=O)n(C)c(=O)n3C)n2Cc2ccccc2)CC1 ?
Reply | 1.75

###

Known inhibition of a selection of compounds
Target: E3 ubiquitin-protein ligase UHRF1 (Homo sapiens)
Assay: blockers of UHRF1 binding to methyl-oligo – biochemical, TR-FRET, human UHRF1, single concentration, counter-screen for MBD2 inhibitor project, primary screen (AID 687016);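 further: UHRF1 SRA domain binding a hemimethylated CpG hairpin DNA probe; 0% = median of test compound wells and 100% = reference inhibitor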
Conditions: UHRF1 binding to methylated oligo, at 4.4 µM, stronger effect = higher value
Screen size: about 370,000 compounds; about 2,800 (0.76%) were called active. The sample holds actives, similar compounds and a random draw of the others, so the mix is not that of the screen.
# number only, unit % dropped from output

compound: COc1ccccc1C(=O)NC1CCCCN(C(C)C)C1=O (stereo not given)
inhibition, %: 2.58

compound: CCc1ccccc1NC(=O)CSc1nnc(-c2cccs2)o1
inhibition, %: 1.37

compound: COC(=O)C1CN(Cc2cn(Cc3ccc(F)cc3)nn2)CCS(=O)(=O)N1Cc1ccc(Cl)cc1 (stereo not given)
inhibition, %: 2.82

compound: CSc1nnc(SCc2nc3sc(C(=O)O)c(C)c3c(=O)[nH]2)s1
inhibition, %: 32.3

Moving on to another compound below.
Ask | inhibition for C=CCN1C(=O)[C@@H](CC(=O)NCCCOCCCC)[C@]2(C(=O)OCC)CCCCC/C=C/12 ?
Reply | -0.5

###

Known inhibition of a selection of compounds
Biological target: E3 ubiquitin-protein ligase UHRF1 (Homo sapiens) (UniProt Q96T88)
Sequence (Q96T88 whole entry, looked up, the tested form may be a part): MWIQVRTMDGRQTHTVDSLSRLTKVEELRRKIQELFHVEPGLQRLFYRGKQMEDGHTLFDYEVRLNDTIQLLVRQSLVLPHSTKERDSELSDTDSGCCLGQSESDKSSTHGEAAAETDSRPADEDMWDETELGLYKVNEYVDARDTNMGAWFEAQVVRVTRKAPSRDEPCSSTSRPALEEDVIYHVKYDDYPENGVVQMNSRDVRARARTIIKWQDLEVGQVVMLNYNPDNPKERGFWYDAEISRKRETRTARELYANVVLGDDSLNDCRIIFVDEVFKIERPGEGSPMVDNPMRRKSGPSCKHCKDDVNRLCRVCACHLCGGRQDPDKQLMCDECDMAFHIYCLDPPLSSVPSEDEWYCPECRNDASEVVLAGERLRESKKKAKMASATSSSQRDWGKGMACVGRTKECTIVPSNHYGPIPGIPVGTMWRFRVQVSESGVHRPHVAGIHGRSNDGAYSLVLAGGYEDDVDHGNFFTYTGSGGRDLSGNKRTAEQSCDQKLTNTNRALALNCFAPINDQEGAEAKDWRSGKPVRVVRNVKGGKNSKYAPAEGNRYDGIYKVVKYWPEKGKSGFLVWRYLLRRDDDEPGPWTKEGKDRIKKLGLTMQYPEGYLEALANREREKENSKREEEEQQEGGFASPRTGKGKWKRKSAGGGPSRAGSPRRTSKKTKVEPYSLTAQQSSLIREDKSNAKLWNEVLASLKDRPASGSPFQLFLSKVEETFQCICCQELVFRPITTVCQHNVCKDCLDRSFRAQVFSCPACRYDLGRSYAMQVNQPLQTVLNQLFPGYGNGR
Experiment: blockers of UHRF1 binding to methyl-oligo – biochemical, TR-FRET, human UHRF1, single concentration, counter-screen for MBD2 inhibitor project, primary screen (AID 687016);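 further: UHRF1 SRA domain binding a hemimethylated CpG hairpin DNA probe; 0% = median of test compound wells and 100% = reference inhibitor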
Conditions: UHRF1 binding to methylated oligo, at 4.4 µM, stronger effect = higher value
In all, about 370,000 compounds went through this assay and about 2,800 (0.76%) were called active. This excerpt belongs to a sample that is enriched for actives.
# number only, unit % dropped from output

Use these answered entries as a reference point.
compound: O=C(Cn1cnc2ccccc21)N/N=C/c1ccco1
unitsOfMeasure: %
result: -2.46

compound: Cc1ccc(S(=O)(=O)NCCC(=O)NNC(=O)C2COc3ccccc3O2)cc1 (centres undefined)
unitsOfMeasure: %
result: -3.3

Ask | inhibition for C=CC1=C(C(=O)O)N2C(=O)[C@@H](NC(=O)/C(=N\OCC(=O)O)c3csc(N)n3)[C@H]2SC1 ?
Reply | 77.4

Ask | inhibition for CCn1c2ccccc2c2cc(NC(=O)CSc3nnc(-c4ccccc4)n3-c3ccc(C)cc3)ccc21 ?
Reply | -2.76

Ask | inhibition for CCC(CO)Nc1cccc2c1S(=O)(=O)N(Cc1cn(Cc3ccccc3C(F)(F)F)nn1)Cc1ccccc1O2 (centres undefined) ?
Reply | 2.09

Ask | inhibition for COc1ccc(CN2C/C(=C/c3ccccc3)N3C(=O)C[C@@H](c4ccccc4)N=C23)c(OC)c1 ?
Reply | -0.02

Ask | inhibition for CN(C)S(=O)(=O)c1cccc(C(=O)N/N=C\c2ccco2)c1 ?
Reply | -2.24

Ask | inhibition for Cc1sc2ncn(CC(=O)NCCN(C)C)c(=O)c2c1S(=O)(=O)N1CCC(C)CC1 ?
Reply | -1.58
